B1: 5KPH (parent)
chain: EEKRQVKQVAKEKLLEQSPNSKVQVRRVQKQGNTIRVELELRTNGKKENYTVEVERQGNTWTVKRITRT

variants of: B1; assay: folding stability dG (cDNA display proteolysis); higher = more stable; settings: PBS, room temperature
parameter: folding stability dG (kJ/mol)
Unit kJ/mol implied. Number only.

Known folding stability dG results, listed for orientation:
mutation-code	parameter	unit-of-measure	test-result
E40D	folding stability dG	kJ/mol	12.7
R27N	folding stability dG	kJ/mol	14.9
E12N	folding stability dG	kJ/mol	15.6
V28D	folding stability dG	kJ/mol	6.02
K30E	folding stability dG	kJ/mol	15.8

Report folding stability dG for `I35D` please.
5.01

// repeat for `R36T` and report
16.3

// repeat for `K22W` and report
17

// repeat for `V28F` and report
16.4
